Origin of measurements: the supplement of paper PMC12764529

- MEASUREMENT_NOTES: folding stability dG unfold from chymotrypsin proteolysis; higher = more stable
Respond with label 1 for folding stability dG unfold values of 0.8 kcal/mol and above, label 0 for values below.

In [3]: df
Out[3]:
                                 seq_string  assigned_label
0  SAGGSAPRVVRVETVTLTPPADSTVTARLLRLETPEGPRYVLAVRDPSTPVVVARPVPEGATLLEESAGGSA [r15_75_TrMRF]         label 0
1  SAGGSAGGSAGMKIKFPNGKVVEIHMDEDSGNIEIEFPDGKKKEINIPGMSIDDILDYLKSAGGSAGGSAGG [r11_729_TrROS]         label 1
2  SAGMITISEEEARELGVPIGASEEEIKEALAARLREEGYKVEFPSVVKEKVDPKTGKVEYKIDINLKPLSAG [r5_23_JUSTAS]         label 0
3  SAGGSAGGSAGMETTVLEEVPPEELAKGQTRLEKLPDGTIIERTVAPEGEVVETKTIPPKSAGGSAGGSAGG [r17_2_JUSTAS]         label 0
4  SAGGSAGGSAGMVFLDPETRLLLVVHPNGEPELVLLEDGRAVLFHPSTGERREIPLAEIGSAGGSAGGSAGG [r11_297_TrMRF]         label 0
5  SAGGSAGGEISPEDIESVETETRTLPNGLKITRTRVRVKKTNQWFELVRIEPLPAEELSEEELKSAGGSAGG [r6_757_TrROS_Hall]         label 1
6  SAGGSAGGSAMTVRIEFEDGSVKEIPAEEFSEDFIKALPKKYKVSEYPEPPLDNNKSNILKSAGGSAGGSAG [r3_69_JUSTAS]         label 0
7  SAGGMKLEIYLRFKTEEEAKKAVEELIRKLLEELGLEVEVEVVYDEETKEVYVKVTVTFPELPEEELSAGGS [r8_17_TrROS_Hall]         label 1
8  SAGGTSPVTIPVTFDDLPPDAVDEAKARAEELAEELRAQGHEVLSVTIEIEPGRVTVTLTVTFPGGAPLSAG [r5_515_JUSTAS]         label 0
